Values from the supplement of paper PMC9402605

# egg-laying rate listing for each entry below
System: Caenorhabditis elegans N2
METHOD_SUMMARY: egg-laying rate relative to DMSO control (serotonin + nicotine background) (fraction of control); higher = more egg-laying
SETUP_CONDITIONS: background: 12.3 mM serotonin + 7.7 mM nicotine; 60 µM; 1 h
Answer with a number only.

Illustrative cases are given below, each with its answer.
>>> df
                                   compound                system_name  result_number
0        c1csc(-c2cnc3ccccc3n2)c1 [wact-21]  Caenorhabditis elegans N2          0.816
1  O=C(Nc1cccc(Cl)c1)N1CCN(c2ccc([N+](=O)[O-])cc2)CC1 [wact-31]  Caenorhabditis elegans N2           1.03
2  CCCCOC(=O)Nc1ccc([N+](=O)[O-])cc1 [wact-419]  Caenorhabditis elegans N2          0.733
3     Brc1cccc(-c2cn3ccccc3n2)c1 [wact-435]  Caenorhabditis elegans N2          0.712
4      CCc1ccc(-c2cn3ccsc3n2)cc1 [wact-434]  Caenorhabditis elegans N2          0.474

So what does the record say about egg-laying rate for O=C1CC(N2CCN(c3ccc([N+](=O)[O-])cc3)CC2)C(=O)N1c1ccccc1F (stereo not given) [wact-56] ? 1.06

What do you have for O=[N+]([O-])c1ccc(-n2ccc3ccccc32)cc1 [wact-213] ? 0.444
